Test system: 422866-222-R5-J1-PDC spheroids with HUVEC/MSC, viability
protocol-text: Anticancer human tumor 422866-222-R5-J1-PDC patient-derived pancreatic adenocarcinoma cell line growth inhibition [GQUAD]
condition-label: second compound 0.1 µM; first compound 0.1 µM; stronger effect = lower value
# viability, T/C per entry
Kindly answer with a numeric value in %, unit omitted.

Example entries and their recorded answers appear below.
O=C(c1cc(Cc2n[nH]c(=O)c3ccccc23)ccc1F)N1CCN(C(=O)C2CC2)CC1 + Cc1[nH]c2ccc(F)cc2c1-c1nc2c3cccnc3c3ncccc3c2[nH]1 ... 85.1
COc1cc(C2c3cc4c(cc3C(OC3OC5COC(C)OC5C(O)C3O)C3COC(=O)C23)OCO4)cc(OC)c1O (stereo not given) + Cc1[nH]c2ccc(F)cc2c1-c1nc2c3cccnc3c3ncccc3c2[nH]1 ... 104
C=CC(=O)N1CCN(c2nc(=O)n(-c3c(C)ccnc3C(C)C)c3nc(-c4c(O)cccc4F)c(F)cc23)C(C)C1 (stereo not given) + Cc1[nH]c2ccc(F)cc2c1-c1nc2c3cccnc3c3ncccc3c2[nH]1 ... 33.6
COc1ccc([C@@H](O)c2cc(-c3ncnc4cc(N5CCOCC5)ccc34)c(F)cc2Cl)nn1 + Cc1[nH]c2ccc(F)cc2c1-c1nc2c3cccnc3c3ncccc3c2[nH]1 ... 78.8

In the following, a different molecule is considered.
Find the measured viability, T/C: item C=CCn1c(=O)c2cnc(Nc3ccc(N4CCN(C)CC4)cc3)nc2n1-c1cccc(C(C)(C)O)n1 + Cc1[nH]c2ccc(F)cc2c1-c1nc2c3cccnc3c3ncccc3c2[nH]1 , target or system 422866-222-R5-J1-PDC spheroids with HUVEC/MSC, viability.
101

====

Tested on: 422866-222-R5-J1-PDC spheroids with HUVEC/MSC, viability
protocol-text: Anticancer human tumor 422866-222-R5-J1-PDC cell line growth inhibition [GQUAD];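 note: spheroids exposed to compounds for seven days before reading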;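 for viability, T/C: percent viability relative to DMSO vehicle control taken as 100%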
condition-label: second compound 3.16 µM; first compound 0.1 µM; stronger effect = lower value
Field: label. Allowed values: Fulfilled (viability, T/C < 80%) or Not fulfilled (viability, T/C >= 80%).

CC(C)n1c(=O)n(C)c2cnc3cc(F)c(-c4ccc(OCCCN5CCCCC5)nc4)cc3c21 + Cc1cnc(CNC(=O)c2c(=O)c3ccc(N4CCCN(C)CC4)nc3n3c2sc2ccccc23)cn1 ... Not fulfilled
C=CC(=O)N1CCN(c2nc(=O)n(-c3c(C)ccnc3C(C)C)c3nc(-c4c(O)cccc4F)c(F)cc23)C(C)C1 (stereo not given) + Cc1cnc(CNC(=O)c2c(=O)c3ccc(N4CCCN(C)CC4)nc3n3c2sc2ccccc23)cn1 ... Fulfilled

Answer whether the compound O=C(c1cc(Cc2n[nH]c(=O)c3ccccc23)ccc1F)N1CCN(C(=O)C2CC2)CC1 + CN(C)c1ccc(Nc2c3ccc(NC(=O)CCN4CCCC4)cc3nc3cc(NC(=O)CCN4CCCC4)ccc23)cc1 has viability, T/C strictly less than 80%
Not fulfilled

====

System: 422866-222-R5-J1-PDC spheroids with HUVEC/MSC, viability
protocol-text: Anticancer human tumor 422866-222-R5-J1-PDC cell line growth inhibition [GQUAD];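 note: spheroids exposed to compounds for seven days before reading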
condition-label: curve of first compound; second compound 0.316 µM
pIC50: −log10 of the molar value.
measured-endpoint: pIC50

Nc1ccn(C2OC(CO)C(O)C2(F)F)c(=O)n1 (centres undefined) + Cc1cnc(CNC(=O)c2c(=O)c3ccc(N4CCCN(C)CC4)nc3n3c2sc2ccccc23)cn1 ... < 5.00
Cc1[nH]c2ccccc2c1CCNCc1ccc(/C=C/C(=O)NO)cc1 + Cc1[nH]c2ccc(F)cc2c1-c1nc2c3cccnc3c3ncccc3c2[nH]1 ... < 6.50
CC(=O)O[C@H]1C(=O)[C@@]2(C)[C@H]([C@H](OC(=O)c3ccccc3)[C@]3(O)C[C@H](OC(=O)[C@H](O)[C@@H](NC(=O)c4ccccc4)c4ccccc4)C(C)=C1C3(C)C)[C@]1(OC(C)=O)CO[C@@H]1C[C@@H]2O + Cc1cnc(CNC(=O)c2c(=O)c3ccc(N4CCCN(C)CC4)nc3n3c2sc2ccccc23)cn1 ... < 5.00

In the following, a different compound is considered.
Find the measured pIC50: item COc1ccc([C@@H](O)c2cc(-c3ncnc4cc(N5CCOCC5)ccc34)c(F)cc2Cl)nn1 + Cc1[nH]c2ccc(F)cc2c1-c1nc2c3cccnc3c3ncccc3c2[nH]1 , target or system 422866-222-R5-J1-PDC spheroids with HUVEC/MSC, viability.
5.49
